Entry source: paper PMC6001238

Hi there, I'd appreciate the recorded MIC for every entry that follows.
# Test system: E. faecalis VRE 6
# ASSAY INFO: MIC, broth microdilution, vancomycin-resistant E. faecalis VRE 6 (VanA)
# Format: cell-based, Enterococcus faecalis
# CONDITION SUMMARY: Enterococcus faecalis VRE 6 (vancomycin-resistant); read-out: MIC
Answers are plain numbers, in µM.

# count of solved cases: 4
Exam item: Check the records and state MIC for CCCC#Cc1ccc(NC(=O)CNC(=O)C2NC(=O)C3NC(=O)C(NC(=O)C4NC(=O)C(CC(N)=O)NC(=O)C(NC(=O)C(CC(C)C)NC)C(O)c5ccc(c(Cl)c5)Oc5cc4cc(c5OC4OC(CO)C(O)C(O)C4OC4CC(C)(N)C(O)C(C)O4)Oc4ccc(cc4Cl)C3O)c3ccc(O)c(c3)-c3c(O)cc(O)cc32)cc1 (stereo not drawn)
Marked response: 3.13

Exam item: Check the records and state MIC for CN[C@H](CC(C)C)C(=O)N[C@H]1C(=O)N[C@@H](CC(N)=O)C(=O)N[C@H]2C(=O)N[C@H]3C(=O)N[C@H](C(=O)N[C@H](C(=O)NCC(=O)Nc4ccc(N5CCOCC5)cc4)c4cc(O)cc(O)c4-c4cc3ccc4O)[C@H](O)c3ccc(c(Cl)c3)Oc3cc2cc(c3O[C@@H]2O[C@H](CO)[C@@H](O)[C@H](O)[C@H]2O[C@H]2C[C@](C)(N)[C@H](O)[C@H](C)O2)Oc2ccc(cc2Cl)[C@H]1O
Marked response: 12.5

Exam item: Check the records and state MIC for CN[C@H](CC(C)C)C(=O)N[C@H]1C(=O)N[C@@H](CC(N)=O)C(=O)N[C@H]2C(=O)N[C@H]3C(=O)N[C@H](C(=O)N[C@H](C(=O)NCCNC(=O)/C=C/c4ccc(Cl)cc4)c4cc(O)cc(O)c4-c4cc3ccc4O)[C@H](O)c3ccc(c(Cl)c3)Oc3cc2cc(c3O[C@@H]2O[C@H](CO)[C@@H](O)[C@H](O)[C@H]2O[C@H]2C[C@](C)(N)[C@H](O)[C@H](C)O2)Oc2ccc(cc2Cl)[C@H]1O
Marked response: 1.56

Exam item: Check the records and state MIC for CCCCOc1ccc(C(=O)NCCCNC(=O)C2NC(=O)C3NC(=O)C(NC(=O)C4NC(=O)C(CC(N)=O)NC(=O)C(NC(=O)C(CC(C)C)NC)C(O)c5ccc(c(Cl)c5)Oc5cc4cc(c5OC4OC(CO)C(O)C(O)C4OC4CC(C)(N)C(O)C(C)O4)Oc4ccc(cc4Cl)C3O)c3ccc(O)c(c3)-c3c(O)cc(O)cc32)cc1 (stereo not drawn)
Marked response: 6.25

I would be grateful if you could provide MIC for each of the following entries.
1. CNC(CC(C)C)C(=O)NC1C(=O)NC(CC(N)=O)C(=O)NC2C(=O)NC3C(=O)NC(C(=O)NC(C(=O)NCCCNC(=O)c4ccc5cc(O)ccc5c4)c4cc(O)cc(O)c4-c4cc3ccc4O)C(O)c3ccc(c(Cl)c3)Oc3cc2cc(c3OC2OC(CO)C(O)C(O)C2OC2CC(C)(N)C(O)C(C)O2)Oc2ccc(cc2Cl)C1O (stereo not drawn)
2. CN[C@H](CC(C)C)C(=O)N[C@H]1C(=O)N[C@@H](CC(N)=O)C(=O)N[C@H]2C(=O)N[C@H]3C(=O)N[C@H](C(=O)N[C@H](C(=O)NCC(=O)Nc4ccc(Cl)cc4Cl)c4cc(O)cc(O)c4-c4cc3ccc4O)[C@H](O)c3ccc(c(Cl)c3)Oc3cc2cc(c3O[C@@H]2O[C@H](CO)[C@@H](O)[C@H](O)[C@H]2O[C@H]2C[C@](C)(N)[C@H](O)[C@H](C)O2)Oc2ccc(cc2Cl)[C@H]1O

Marked response:
3.13
1.56
